Tested on: surinam grass
experimentSummary: Test B pre/postemergence surinam grass
Assay type: in vivo, Brachiaria decumbens
conditionsUsed: Postemergence, Rate 250 g/ha; scale 0 to 10, 0 is no effect, 10 is complete control
Each record here notes measured Plant response rating, B. signalgrass.

{"columns": ["compound", "assayTarget", "Plant response rating, B. signalgrass"],
 "data": [
  ["CC(C)N(C(=O)n1oc(=O)n(CCl)c1=O)c1ccccc1 [Compound 423]", "surinam grass", 0],
  ["CC(C)N(C(=O)n1oc(=O)n(CCl)c1=O)c1ccc(F)cc1 [Compound 376]", "surinam grass", 0],
  ["CC(C)N(C(=O)n1oc(=O)n(N2C(C)CCCC2C)c1=O)c1ccc(F)cc1 (stereo not shown) [Compound 382]", "surinam grass", 0],
  ["CC(C)N(C(=O)n1oc(=O)n(CCBr)c1=O)c1ccccc1 [Compound 415]", "surinam grass", 2]
]}

---

Property: Plant response rating, Rape; scope: individual compounds
System: rape
experimentSummary: Test B pre/postemergence rape
Assay type: in vivo, Brassica napus
conditionsUsed: Postemergence, Rate 62 g/ha; scale 0 to 10, 0 is no effect, 10 is complete control

{"columns": ["compound", "Plant response rating, Rape"],
 "data": [
  ["CC(C)N(C(=O)n1oc(=O)n(CCN(C)C(=O)c2ccccc2)c1=O)c1ccc(F)cc1F", 0],
  ["CC(C)N(C(=O)n1oc(=O)n(C[C@H](C)Cl)c1=O)c1ccccc1", 4],
  ["CC(=O)OCC(CCl)n1c(=O)on(C(=O)N(c2ccc(F)cc2F)C(C)C)c1=O (racemic)", 0],
  ["C#CC=CC(C)(C)n1c(=O)on(C(=O)N(c2ccccc2)C(C)C)c1=O", 0],
  ["CC(C)N(C(=O)n1oc(=O)n(CSC#N)c1=O)c1ccc(F)cc1", 0]
]}

---

Test system: morningglory
experimentSummary: Test B pre/postemergence morningglory
Format: in vivo, Ipomoea hederacea
conditionsUsed: Preemergence, Rate 62 g/ha; scale of 0 to 10 where 0 is no effect and 10 is complete control
List of Plant response rating, Morningglory values.

{"columns": ["molecule", "Plant response rating, Morningglory"],
 "data": [
  ["CC(C)N(C(=O)n1oc(=O)n(CCCCF)c1=O)c1ccc(F)cc1F [Compound 522]", 0],
  ["CC(C)N(C(=O)n1oc(=O)n(CCCl)c1=O)c1ccccc1 [Compound 469]", 0],
  ["CC(C)N(C(=O)n1oc(=O)n(CCCC(F)(F)F)c1=O)c1ccc(F)cc1F [Compound 526]", 0],
  ["CC(C)N(C(=O)n1oc(=O)n(C(C)Cl)c1=O)c1ccccc1 (stereo not shown) [Compound 438]", 0]
]}

---

Each entry below carries its reported Crabgrass plant response rating.
Test system: crabgrass
experimentSummary: Test B pre/postemergence crabgrass
Assay type: in vivo, Digitaria sanguinalis
conditionsUsed: Preemergence, Rate 250 g/ha; scale 0 (no effect) to 10 (complete control)
measurementLabel: Crabgrass plant response rating

{"columns": ["molecule", "assayTarget", "measurementLabel", "numericReadout"],
 "data": [
  ["COC(CCl)n1c(=O)on(C(=O)N(c2ccc(Cl)cc2)C(C)C)c1=O (centres unmarked) [Compound 725]", "crabgrass", "Crabgrass plant response rating", 8],
  ["CC(=O)NCCn1c(=O)on(C(=O)N(c2ccc(F)cc2)C(C)C)c1=O [Compound 727]", "crabgrass", "Crabgrass plant response rating", 9],
  ["CC(C)N(C(=O)n1oc(=O)n(CCCCCl)c1=O)c1ccccc1 [Compound 792]", "crabgrass", "Crabgrass plant response rating", 10],
  ["COC(=O)C(c1ccccc1)n1c(=O)on(C(=O)N(c2ccc(Cl)cc2)C(C)C)c1=O (centres unmarked) [Compound 724]", "crabgrass", "Crabgrass plant response rating", 7],
  ["CC(=O)OCC(CCl)n1c(=O)on(C(=O)N(c2ccc(F)cc2F)C(C)C)c1=O (racemic) [Compound 708]", "crabgrass", "Crabgrass plant response rating", 10]
]}

---

System: giant foxtail
experimentSummary: Test B pre/postemergence giant foxtail
Type: in vivo, Setaria faberii
conditionsUsed: Preemergence, Rate 250 g/ha; scale 0 to 10 (0 no effect, 10 complete control)
// reported Plant response rating, Giant foxtail per item
measurementLabel: Plant response rating, Giant foxtail

{"columns": ["compound", "measurementLabel", "numericReadout"],
 "data": [
  ["C=C(Cl)Cn1c(=O)on(C(=O)N(c2ccc(F)cc2F)C(C)C)c1=O", "Plant response rating, Giant foxtail", 10],
  ["CC[C@H](C)n1c(=O)on(C(=O)N(c2ccc(F)cc2F)C(C)C)c1=O", "Plant response rating, Giant foxtail", 10],
  ["COCCn1c(=O)on(C(=O)N(c2ccc(F)cc2)C(C)C)c1=O", "Plant response rating, Giant foxtail", 10],
  ["C#CC(C)n1c(=O)on(C(=O)N(c2ccc(F)cc2F)C(C)C)c1=O (racemic)", "Plant response rating, Giant foxtail", 9]
]}

---

Tested on: velvetleaf
experimentSummary: Test B pre/postemergence velvetleaf
Assay type: in vivo, Abutilon theophrasti
conditionsUsed: Preemergence, Rate 125 g/ha; 0 is no effect, 10 is complete control
Catalogue of Velvetleaf plant response rating (0 to 10 scale) values
measurementLabel: Velvetleaf plant response rating (0 to 10 scale)

{"columns": ["structureAsSmiles", "numericReadout"],
 "data": [
  ["Cc1ccccc1-n1c(=O)on(C(=O)N(c2ccc(Br)cc2)C(C)C)c1=O", 0],
  ["CC(C)c1noc(C(C)C)c1-n1c(=O)on(C(=O)N(c2ccc(F)cc2)C(C)C)c1=O", 0],
  ["C=CCn1c(=O)on(C(=O)N(c2ccc(Cl)cc2)C(C)C)c1=O", 4],
  ["CCCn1c(=O)on(C(=O)N(c2ccc(F)cc2F)C(C)C)c1=O", 8],
  ["CCCn1c(=O)on(C(=O)N(c2ccc(F)cc2)C(C)C)c1=O", 6],
  ["CC(C)N(C(=O)n1oc(=O)n(C(C)C)c1=O)c1ccc(F)cc1", 8]
]}

---

Test system: sugar beet
experimentSummary: Test B pre/postemergence sugar beet
Type: in vivo, Beta vulgaris
conditionsUsed: Preemergence, Rate 62 g/ha; scale 0 to 10 (0 no effect, 10 complete control)

{"columns": ["compound", "Sugarbeets plant response rating"],
 "data": [
  ["Cc1nn(C)c(Cl)c1-n1c(=O)on(C(=O)N(c2ccc(F)cc2F)C(C)C)c1=O [Compound 96]", 0],
  ["CCC=CCn1c(=O)on(C(=O)N(c2ccccc2)C(C)C)c1=O [Compound 582]", 0],
  ["CC(C)N(C(=O)n1oc(=O)n(CC2CCC2)c1=O)c1ccccc1 [Compound 580]", 0],
  ["Cc1ccccc1Cn1c(=O)on(C(=O)N(c2ccc(F)cc2F)C(C)C)c1=O [Compound 87]", 0],
  ["C=CCCCn1c(=O)on(C(=O)N(c2ccc(Cl)cc2)C(C)C)c1=O [Compound 546]", 0],
  ["COCCn1c(=O)on(C(=O)N(c2ccc(F)cc2)C(C)C)c1=O [Compound 627]", 5],
  ["CC(C)N(C(=O)n1oc(=O)n(C(C)C)c1=O)c1ccc(Cl)cc1 [Compound 114]", 4]
]}

---

Catalogue of compounds with associated Redroot pigweed plant response rating
Test system: pigweed
experimentSummary: Test B pre/postemergence pigweed
Type: in vivo, Amaranthus retroflexus
conditionsUsed: Rate 125 g/ha; Postemergence; scale 0 to 10, 0 no effect, 10 complete control
Procedure: […] At the same time, these crop and weed species were also treated with postemergence applications of test chemicals formulated in the same manner. […] Treated plants and controls were maintained in a greenhouse for twelve to sixteen days, after which all species were compared to controls and visually evaluated. […]
measurementLabel: Redroot pigweed plant response rating

{"columns": ["structureAsSmiles", "measurementLabel", "numericReadout"],
 "data": [
  ["Cc1cc(C)c(-n2c(=O)on(C(=O)N(c3ccc(F)cc3)C(C)C)c2=O)c(C)c1", "Redroot pigweed plant response rating", 4],
  ["Cc1cccc(Cl)c1-n1c(=O)on(C(=O)N(c2ccc(Cl)cc2)C(C)C)c1=O", "Redroot pigweed plant response rating", 0],
  ["Cc1cccc(C)c1-n1c(=O)on(C(=O)N(c2ccc(Cl)cc2)C(C)C)c1=O", "Redroot pigweed plant response rating", 0],
  ["Cc1cccc(C)c1-n1c(=O)on(C(=O)N(c2ccc(F)cc2)C(C)C)c1=O", "Redroot pigweed plant response rating", 1]
]}

---

Below, each of the molecules is paired with its reported Plant response rating, Bedstraw value.
Test system: bedstraw
experimentSummary: Test B pre/postemergence bedstraw
Assay type: in vivo, Galium aparine
conditionsUsed: Postemergence, Rate 62 g/ha; scale 0 to 10, 0 is no effect, 10 is complete control

{"columns": ["molecule", "Plant response rating, Bedstraw"],
 "data": [
  ["C=C(C)Cn1c(=O)on(C(=O)N(c2ccccc2)C(C)C)c1=O", 0],
  ["CC(C)N(C(=O)n1oc(=O)n(CC2CCCCO2)c1=O)c1ccccc1 (stereo not drawn)", 0],
  ["CC(C)N(C(=O)n1oc(=O)n(CCN(C)C(=O)c2ccccc2)c1=O)c1ccc(F)cc1F", 0],
  ["CC(C)N(C(=O)n1oc(=O)n(CNC(=O)c2ccccc2)c1=O)c1ccccc1", 0],
  ["CC(C)N(C(=O)n1oc(=O)n(C[C@H](C)Cl)c1=O)c1ccccc1", 8],
  ["C=C(Cn1c(=O)on(C(=O)N(c2ccccc2)C(C)C)c1=O)c1cccc(Cl)n1", 0]
]}
